Hey, just so you know, these numbers are from paper PMC5119973.

TEST TARGET: BRAF^V600E (Homo sapiens, UniProt P15056, V600E)
Sequence (P15056 whole entry V600E): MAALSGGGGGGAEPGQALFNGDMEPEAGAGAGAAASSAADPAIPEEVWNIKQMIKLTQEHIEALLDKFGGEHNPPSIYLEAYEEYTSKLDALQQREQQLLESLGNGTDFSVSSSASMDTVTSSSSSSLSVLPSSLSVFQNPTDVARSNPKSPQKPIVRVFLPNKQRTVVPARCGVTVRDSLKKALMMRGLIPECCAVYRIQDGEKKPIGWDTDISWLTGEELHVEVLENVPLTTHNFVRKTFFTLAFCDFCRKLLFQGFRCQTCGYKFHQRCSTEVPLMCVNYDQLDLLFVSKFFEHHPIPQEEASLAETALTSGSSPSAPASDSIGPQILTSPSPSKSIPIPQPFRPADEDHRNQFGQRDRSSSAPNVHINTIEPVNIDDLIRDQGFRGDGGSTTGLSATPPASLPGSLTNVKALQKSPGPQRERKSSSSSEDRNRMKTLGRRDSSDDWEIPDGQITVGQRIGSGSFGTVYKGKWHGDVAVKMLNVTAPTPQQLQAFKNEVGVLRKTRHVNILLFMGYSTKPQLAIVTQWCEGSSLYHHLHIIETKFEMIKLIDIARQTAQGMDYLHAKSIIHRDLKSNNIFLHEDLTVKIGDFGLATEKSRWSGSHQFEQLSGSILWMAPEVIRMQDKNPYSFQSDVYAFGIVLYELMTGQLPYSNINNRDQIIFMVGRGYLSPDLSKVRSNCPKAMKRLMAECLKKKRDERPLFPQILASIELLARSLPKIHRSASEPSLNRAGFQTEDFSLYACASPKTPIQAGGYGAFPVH
METHOD DESCRIPTION: Cellular kinase phosphorylation assay, RAT‐1/BRAF^V600E
COND: RAT‐1/BRAF^V600E cells; without serum; read-out: Mean ± SD IC50
pIC50: −log10 of the molar value.
Measured pIC50 of individual entries
METRIC: pIC50

NC(=O)c1cc(Oc2ccc(NC(=O)Nc3ccc(Cl)c(C(F)(F)F)c3)c(F)c2)cc[n+]1[O-] [M‐5]    7.57
CNC(=O)c1cc(Oc2ccc(NC(=O)Nc3ccc(Cl)c(C(F)(F)F)c3)c(F)c2)cc[n+]1[O-] [M‐2]    7.68

====

METHOD DESCRIPTION: Plasma protein binding in vitro (Transil), human plasma
Format: in vitro ADME
COND: male, human, plasma; arithmetic mean ± SD
METRIC: fraction unbound

CNC(=O)c1cc(Oc2ccc(NC(=O)Nc3ccc(Cl)c(C(F)(F)F)c3)c(F)c2)ccn1 [Regorafenib, reference compound]    ~0.005

====

TEST TARGET: BRAF^V600E (Homo sapiens, UniProt P15056, V600E)
METHOD DESCRIPTION: KINOMEscan active-site competitive binding assay
METRIC: Kd (nM)

NC(=O)c1cc(Oc2ccc(NC(=O)Nc3ccc(Cl)c(C(F)(F)F)c3)c(F)c2)cc[n+]1[O-]    11
CNC(=O)c1cc(Oc2ccc(NC(=O)Nc3ccc(Cl)c(C(F)(F)F)c3)c(F)c2)cc[n+]1[O-]    15

====

TEST TARGET: UniProt P35968
Sequence (P35968 20-1356): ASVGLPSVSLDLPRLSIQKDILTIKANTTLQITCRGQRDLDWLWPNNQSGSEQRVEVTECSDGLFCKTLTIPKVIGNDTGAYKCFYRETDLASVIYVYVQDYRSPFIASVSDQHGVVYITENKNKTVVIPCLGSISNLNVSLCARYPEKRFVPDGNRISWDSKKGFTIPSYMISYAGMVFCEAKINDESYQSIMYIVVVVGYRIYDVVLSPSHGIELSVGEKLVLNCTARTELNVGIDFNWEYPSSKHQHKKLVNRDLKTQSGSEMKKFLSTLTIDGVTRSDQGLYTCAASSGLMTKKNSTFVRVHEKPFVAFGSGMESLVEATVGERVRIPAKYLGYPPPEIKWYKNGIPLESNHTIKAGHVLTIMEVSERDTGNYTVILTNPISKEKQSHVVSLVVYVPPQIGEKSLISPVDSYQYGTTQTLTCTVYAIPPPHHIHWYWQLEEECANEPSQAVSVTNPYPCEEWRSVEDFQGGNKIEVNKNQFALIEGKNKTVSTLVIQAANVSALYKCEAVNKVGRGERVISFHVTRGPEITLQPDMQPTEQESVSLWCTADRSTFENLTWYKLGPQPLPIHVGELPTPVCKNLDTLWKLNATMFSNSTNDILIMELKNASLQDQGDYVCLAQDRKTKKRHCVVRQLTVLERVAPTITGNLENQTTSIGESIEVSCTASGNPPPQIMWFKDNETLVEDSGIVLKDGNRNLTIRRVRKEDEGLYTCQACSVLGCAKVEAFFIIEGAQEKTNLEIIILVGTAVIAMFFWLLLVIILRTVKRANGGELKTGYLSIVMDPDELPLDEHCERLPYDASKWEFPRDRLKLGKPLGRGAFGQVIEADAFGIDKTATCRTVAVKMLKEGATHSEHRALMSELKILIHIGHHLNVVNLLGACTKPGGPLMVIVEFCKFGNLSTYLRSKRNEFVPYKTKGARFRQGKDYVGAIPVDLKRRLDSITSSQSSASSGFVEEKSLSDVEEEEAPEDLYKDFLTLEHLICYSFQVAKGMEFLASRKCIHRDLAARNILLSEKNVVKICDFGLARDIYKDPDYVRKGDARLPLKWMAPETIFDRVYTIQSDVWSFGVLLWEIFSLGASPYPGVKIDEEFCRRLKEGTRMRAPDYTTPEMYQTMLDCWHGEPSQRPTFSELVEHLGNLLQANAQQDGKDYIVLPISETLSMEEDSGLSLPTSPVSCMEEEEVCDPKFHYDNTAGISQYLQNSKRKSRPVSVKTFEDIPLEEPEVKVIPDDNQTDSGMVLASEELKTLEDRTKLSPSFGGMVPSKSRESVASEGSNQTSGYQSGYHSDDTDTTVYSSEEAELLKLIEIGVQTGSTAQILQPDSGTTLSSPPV
METHOD DESCRIPTION: VEGFR2 autophosphorylation in HuVECs stimulated with VEGF‐A (western blot)
COND: VEGF‐A stimulation, 0.1% bovine serum albumin, estimated from western blots, read-out: Mean ± SD IC50
Procedure: Endothelial cell assays were performed as described previously 14. In brief, HuVECs and HuLECs were grown in EBM‐2 supplemented with growth factors (Lonza, Walkersville, MD). […] Cells were lysed, and total cell lysates were analyzed for inhibition of phosphorylation by western blot, using antibodies against total and phosphorylated VEGFR2 and VEGFR3, ERK1/2, and AKT. Signals were detected by […] luminescence (GE Healthcare Biosciences; Pittsburgh, PA).
METRIC: IC50

CNC(=O)c1cc(Oc2ccc(NC(=O)Nc3ccc(Cl)c(C(F)(F)F)c3)c(F)c2)cc[n+]1[O-]    ~0.004 µM
NC(=O)c1cc(Oc2ccc(NC(=O)Nc3ccc(Cl)c(C(F)(F)F)c3)c(F)c2)cc[n+]1[O-]    ~0.016 µM

====

TEST TARGET: KIT^K642E (Homo sapiens, UniProt P10721, K642E)
Construct: KIT^K642E assays were performed in a GIST cell line (GIST882); endogenous in cells
METHOD DESCRIPTION: Cellular kinase phosphorylation assay, GIST882/KIT^K642E
COND: GIST882/KIT^K642E cells; 0.1% bovine serum albumin; brackets = number of experiments; read-out: Mean ± SD IC50
METRIC: IC50 (nM)

CNC(=O)c1cc(Oc2ccc(NC(=O)Nc3ccc(Cl)c(C(F)(F)F)c3)c(F)c2)cc[n+]1[O-] [M‐2]    4

====

TEST TARGET: FLT3^K663Q (Homo sapiens, UniProt P36888, K663Q)
METHOD DESCRIPTION: KINOMEscan active-site competitive binding assay
pKd: −log10 of the molar value.
METRIC: pKd

NC(=O)c1cc(Oc2ccc(NC(=O)Nc3ccc(Cl)c(C(F)(F)F)c3)c(F)c2)cc[n+]1[O-]    8.26

====

TEST TARGET: LOK (Homo sapiens)
METHOD DESCRIPTION: KINOMEscan active-site competitive binding assay
COND: slash = two separate measurements
Measured Kd of individual entries
METRIC: Kd (nM)

NC(=O)c1cc(Oc2ccc(NC(=O)Nc3ccc(Cl)c(C(F)(F)F)c3)c(F)c2)cc[n+]1[O-] [M‐5]    11
CNC(=O)c1cc(Oc2ccc(NC(=O)Nc3ccc(Cl)c(C(F)(F)F)c3)c(F)c2)cc[n+]1[O-] [M‐2]    9.3

====

TEST TARGET: KIT^V559D,T670I (Homo sapiens, UniProt P10721, T670I/V559D)
METHOD DESCRIPTION: KINOMEscan active-site competitive binding assay
pKd: −log10 of the molar value.
METRIC: pKd

NC(=O)c1cc(Oc2ccc(NC(=O)Nc3ccc(Cl)c(C(F)(F)F)c3)c(F)c2)cc[n+]1[O-]    7.96
CNC(=O)c1cc(Oc2ccc(NC(=O)Nc3ccc(Cl)c(C(F)(F)F)c3)c(F)c2)cc[n+]1[O-]    7.92

====

TEST TARGET: PDGFRA (Homo sapiens)
Sequence (P16234 24-1089): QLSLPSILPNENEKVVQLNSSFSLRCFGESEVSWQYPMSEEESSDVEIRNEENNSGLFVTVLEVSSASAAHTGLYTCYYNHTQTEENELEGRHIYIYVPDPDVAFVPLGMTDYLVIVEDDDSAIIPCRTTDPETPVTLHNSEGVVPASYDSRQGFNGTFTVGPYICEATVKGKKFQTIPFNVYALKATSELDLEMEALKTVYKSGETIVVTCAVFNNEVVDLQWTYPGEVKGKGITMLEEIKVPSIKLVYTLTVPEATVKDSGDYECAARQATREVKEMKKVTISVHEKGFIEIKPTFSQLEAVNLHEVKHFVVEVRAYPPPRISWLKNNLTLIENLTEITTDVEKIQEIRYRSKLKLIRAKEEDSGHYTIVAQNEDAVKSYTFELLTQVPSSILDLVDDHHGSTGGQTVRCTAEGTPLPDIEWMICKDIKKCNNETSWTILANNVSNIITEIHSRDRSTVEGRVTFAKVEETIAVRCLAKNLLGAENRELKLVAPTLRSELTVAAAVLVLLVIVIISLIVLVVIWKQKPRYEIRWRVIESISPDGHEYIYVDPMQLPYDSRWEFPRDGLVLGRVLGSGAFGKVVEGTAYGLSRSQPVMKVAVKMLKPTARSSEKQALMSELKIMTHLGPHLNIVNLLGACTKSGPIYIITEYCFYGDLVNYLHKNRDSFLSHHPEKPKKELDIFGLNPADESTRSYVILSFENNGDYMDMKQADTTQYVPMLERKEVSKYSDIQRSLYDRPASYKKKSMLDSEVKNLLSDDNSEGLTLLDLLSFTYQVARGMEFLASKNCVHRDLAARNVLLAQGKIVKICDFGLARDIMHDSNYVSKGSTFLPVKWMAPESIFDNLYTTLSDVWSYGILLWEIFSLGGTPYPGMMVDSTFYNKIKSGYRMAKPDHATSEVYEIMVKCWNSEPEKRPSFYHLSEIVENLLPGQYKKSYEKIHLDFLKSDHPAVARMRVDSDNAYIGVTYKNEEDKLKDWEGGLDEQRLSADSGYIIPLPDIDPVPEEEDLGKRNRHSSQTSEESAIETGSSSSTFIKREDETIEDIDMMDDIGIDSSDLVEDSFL
METHOD DESCRIPTION: KINOMEscan active-site competitive binding assay
COND: slash = two separate measurements
METRIC: Kd

CNC(=O)c1cc(Oc2ccc(NC(=O)Nc3ccc(Cl)c(C(F)(F)F)c3)c(F)c2)cc[n+]1[O-] [M‐2]    7.3 nM

====

TEST TARGET: CSF1R (Homo sapiens)
METHOD DESCRIPTION: KINOMEscan active-site competitive binding assay
COND: slash = two separate measurements
METRIC: Kd (nM)

NC(=O)c1cc(Oc2ccc(NC(=O)Nc3ccc(Cl)c(C(F)(F)F)c3)c(F)c2)cc[n+]1[O-]    13
CNC(=O)c1cc(Oc2ccc(NC(=O)Nc3ccc(Cl)c(C(F)(F)F)c3)c(F)c2)cc[n+]1[O-]    21

====

TEST TARGET: VEGFR3 (Homo sapiens, UniProt P35916)
Construct: VEGFR3 autophosphorylation in HuLECs; endogenous in cells
Sequence (P35916 25-1363): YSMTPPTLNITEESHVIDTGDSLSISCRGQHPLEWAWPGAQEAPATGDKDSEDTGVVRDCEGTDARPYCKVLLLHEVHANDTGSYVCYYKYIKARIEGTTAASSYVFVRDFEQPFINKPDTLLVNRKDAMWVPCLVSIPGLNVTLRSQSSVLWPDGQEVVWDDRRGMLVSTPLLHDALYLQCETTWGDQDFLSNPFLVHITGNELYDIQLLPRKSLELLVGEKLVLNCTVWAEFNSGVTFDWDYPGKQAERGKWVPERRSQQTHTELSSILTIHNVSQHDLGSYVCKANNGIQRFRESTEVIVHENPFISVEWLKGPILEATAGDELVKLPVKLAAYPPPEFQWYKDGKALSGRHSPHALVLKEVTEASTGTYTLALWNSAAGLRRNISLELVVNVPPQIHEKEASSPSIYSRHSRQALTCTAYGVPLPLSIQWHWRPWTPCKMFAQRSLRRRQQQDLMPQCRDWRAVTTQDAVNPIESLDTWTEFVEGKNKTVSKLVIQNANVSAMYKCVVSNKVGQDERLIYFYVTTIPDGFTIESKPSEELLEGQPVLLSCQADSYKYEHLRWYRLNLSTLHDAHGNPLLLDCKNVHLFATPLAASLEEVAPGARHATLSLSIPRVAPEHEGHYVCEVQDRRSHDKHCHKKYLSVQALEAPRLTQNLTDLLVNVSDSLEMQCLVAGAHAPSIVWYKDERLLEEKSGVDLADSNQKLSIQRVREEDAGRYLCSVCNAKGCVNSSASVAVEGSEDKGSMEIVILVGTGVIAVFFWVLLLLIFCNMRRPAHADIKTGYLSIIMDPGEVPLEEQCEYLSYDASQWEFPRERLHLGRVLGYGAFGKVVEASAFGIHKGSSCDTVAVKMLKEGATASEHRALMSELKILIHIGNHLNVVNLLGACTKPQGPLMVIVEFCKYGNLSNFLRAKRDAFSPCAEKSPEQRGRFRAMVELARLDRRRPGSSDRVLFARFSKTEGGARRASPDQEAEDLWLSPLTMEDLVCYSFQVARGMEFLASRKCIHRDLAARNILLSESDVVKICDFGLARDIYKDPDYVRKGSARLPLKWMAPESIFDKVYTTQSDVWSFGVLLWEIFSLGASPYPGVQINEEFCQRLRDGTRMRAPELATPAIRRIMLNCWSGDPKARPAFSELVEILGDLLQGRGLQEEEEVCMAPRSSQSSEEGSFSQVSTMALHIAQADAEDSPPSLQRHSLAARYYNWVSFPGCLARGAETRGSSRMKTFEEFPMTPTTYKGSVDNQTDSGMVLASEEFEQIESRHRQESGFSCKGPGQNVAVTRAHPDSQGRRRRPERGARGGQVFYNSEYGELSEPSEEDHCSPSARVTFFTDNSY
METHOD DESCRIPTION: VEGFR3 autophosphorylation in HuLECs stimulated with VEGF‐C (western blot)
COND: VEGF‐C stimulation, 0.1% bovine serum albumin, estimated from western blots, read-out: Mean ± SD IC50
Measured IC50 of individual entries
METRIC: IC50

NC(=O)c1cc(Oc2ccc(NC(=O)Nc3ccc(Cl)c(C(F)(F)F)c3)c(F)c2)cc[n+]1[O-] [M‐5]    ~16 nM
CNC(=O)c1cc(Oc2ccc(NC(=O)Nc3ccc(Cl)c(C(F)(F)F)c3)c(F)c2)cc[n+]1[O-] [M‐2]    ~4 nM

====

TEST TARGET: TAK1 (Homo sapiens, UniProt O43318)
Sequence (O43318 1-606): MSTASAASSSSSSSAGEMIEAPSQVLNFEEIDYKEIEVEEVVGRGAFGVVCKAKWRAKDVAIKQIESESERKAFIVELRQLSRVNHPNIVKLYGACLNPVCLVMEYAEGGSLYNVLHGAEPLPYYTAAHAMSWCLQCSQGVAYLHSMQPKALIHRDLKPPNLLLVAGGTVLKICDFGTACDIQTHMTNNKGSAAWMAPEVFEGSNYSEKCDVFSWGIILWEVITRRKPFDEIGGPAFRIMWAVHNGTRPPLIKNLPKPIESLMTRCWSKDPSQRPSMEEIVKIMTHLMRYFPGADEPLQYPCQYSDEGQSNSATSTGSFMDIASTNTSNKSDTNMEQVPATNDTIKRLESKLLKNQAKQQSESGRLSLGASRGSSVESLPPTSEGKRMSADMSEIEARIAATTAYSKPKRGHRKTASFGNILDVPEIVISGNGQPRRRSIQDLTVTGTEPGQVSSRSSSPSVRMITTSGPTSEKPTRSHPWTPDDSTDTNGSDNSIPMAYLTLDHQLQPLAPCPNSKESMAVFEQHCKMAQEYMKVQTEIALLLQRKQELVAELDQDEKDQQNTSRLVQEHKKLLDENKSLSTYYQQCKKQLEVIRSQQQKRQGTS
METHOD DESCRIPTION: KINOMEscan active-site competitive binding assay
COND: slash = two separate measurements
Measured Kd of individual entries
METRIC: Kd (nM)

NC(=O)c1cc(Oc2ccc(NC(=O)Nc3ccc(Cl)c(C(F)(F)F)c3)c(F)c2)cc[n+]1[O-]    120
CNC(=O)c1cc(Oc2ccc(NC(=O)Nc3ccc(Cl)c(C(F)(F)F)c3)c(F)c2)cc[n+]1[O-]    79

====

TEST TARGET: TIE‐2 (Homo sapiens)
METHOD DESCRIPTION: KINOMEscan active-site competitive binding assay
COND: data not shown
pKd: −log10 of the molar value.
METRIC: pKd

NC(=O)c1cc(Oc2ccc(NC(=O)Nc3ccc(Cl)c(C(F)(F)F)c3)c(F)c2)cc[n+]1[O-]    5.92
CNC(=O)c1cc(Oc2ccc(NC(=O)Nc3ccc(Cl)c(C(F)(F)F)c3)c(F)c2)cc[n+]1[O-]    6.10

====

TEST TARGET: RET (Homo sapiens, UniProt P07949)
METHOD DESCRIPTION: KINOMEscan active-site competitive binding assay
COND: slash = two separate measurements
pKd: −log10 of the molar value.
METRIC: pKd

NC(=O)c1cc(Oc2ccc(NC(=O)Nc3ccc(Cl)c(C(F)(F)F)c3)c(F)c2)cc[n+]1[O-] [M‐5]    8.24
CNC(=O)c1cc(Oc2ccc(NC(=O)Nc3ccc(Cl)c(C(F)(F)F)c3)c(F)c2)cc[n+]1[O-] [M‐2]    8.12
